These measurements were taken from patent US6531148B1.

# system-tested: α-glucosidase from rat small intestine mucous membrane (Rattus norvegicus)
# Sequence (P23739 whole entry): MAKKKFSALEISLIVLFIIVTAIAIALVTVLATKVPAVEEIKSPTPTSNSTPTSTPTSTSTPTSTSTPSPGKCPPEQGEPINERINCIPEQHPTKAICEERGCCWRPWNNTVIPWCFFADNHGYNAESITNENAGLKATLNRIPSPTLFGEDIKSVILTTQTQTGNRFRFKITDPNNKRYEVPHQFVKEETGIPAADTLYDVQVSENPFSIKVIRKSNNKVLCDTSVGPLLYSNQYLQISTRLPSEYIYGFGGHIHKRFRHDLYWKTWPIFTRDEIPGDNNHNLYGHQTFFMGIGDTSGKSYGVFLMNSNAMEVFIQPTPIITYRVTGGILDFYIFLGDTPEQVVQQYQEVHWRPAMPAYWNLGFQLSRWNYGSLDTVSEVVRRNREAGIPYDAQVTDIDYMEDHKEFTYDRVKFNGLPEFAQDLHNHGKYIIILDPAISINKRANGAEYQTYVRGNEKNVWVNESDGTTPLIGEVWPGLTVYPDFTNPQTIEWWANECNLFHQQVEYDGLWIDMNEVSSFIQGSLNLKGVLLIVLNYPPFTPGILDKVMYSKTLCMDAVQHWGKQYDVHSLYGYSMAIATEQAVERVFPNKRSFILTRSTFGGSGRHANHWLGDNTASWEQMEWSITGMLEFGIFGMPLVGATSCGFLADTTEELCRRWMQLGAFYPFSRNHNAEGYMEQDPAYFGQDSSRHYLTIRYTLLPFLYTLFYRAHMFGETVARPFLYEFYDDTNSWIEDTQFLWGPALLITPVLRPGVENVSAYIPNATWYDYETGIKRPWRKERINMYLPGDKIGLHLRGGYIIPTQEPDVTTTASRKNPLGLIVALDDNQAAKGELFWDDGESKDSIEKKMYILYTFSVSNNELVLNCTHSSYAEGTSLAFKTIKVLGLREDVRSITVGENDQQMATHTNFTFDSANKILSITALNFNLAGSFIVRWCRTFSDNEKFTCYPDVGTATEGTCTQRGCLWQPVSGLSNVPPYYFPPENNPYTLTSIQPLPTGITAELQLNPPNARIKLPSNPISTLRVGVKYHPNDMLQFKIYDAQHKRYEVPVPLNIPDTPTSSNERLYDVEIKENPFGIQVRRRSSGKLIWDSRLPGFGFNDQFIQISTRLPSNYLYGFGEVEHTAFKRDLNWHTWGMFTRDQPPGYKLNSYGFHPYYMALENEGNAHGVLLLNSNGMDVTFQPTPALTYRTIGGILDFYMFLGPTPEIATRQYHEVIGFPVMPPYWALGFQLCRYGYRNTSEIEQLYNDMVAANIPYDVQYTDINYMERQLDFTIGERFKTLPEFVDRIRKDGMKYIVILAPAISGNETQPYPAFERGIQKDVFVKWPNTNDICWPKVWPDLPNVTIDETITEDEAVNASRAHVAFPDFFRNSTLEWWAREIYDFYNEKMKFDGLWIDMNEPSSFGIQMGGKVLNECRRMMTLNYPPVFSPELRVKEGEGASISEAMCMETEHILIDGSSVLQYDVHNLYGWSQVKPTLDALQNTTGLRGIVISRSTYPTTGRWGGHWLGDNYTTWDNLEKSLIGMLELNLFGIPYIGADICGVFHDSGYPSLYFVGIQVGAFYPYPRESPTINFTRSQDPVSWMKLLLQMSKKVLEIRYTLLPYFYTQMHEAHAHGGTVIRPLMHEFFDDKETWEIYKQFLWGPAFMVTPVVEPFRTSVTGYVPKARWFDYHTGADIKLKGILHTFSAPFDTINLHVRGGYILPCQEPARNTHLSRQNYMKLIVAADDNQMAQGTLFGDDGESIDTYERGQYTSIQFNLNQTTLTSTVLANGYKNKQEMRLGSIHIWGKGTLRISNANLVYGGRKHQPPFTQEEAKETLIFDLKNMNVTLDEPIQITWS
recorded-endpoint: pKi
One number for each entry, as −log10 of the molar value.

Query :: What does the record list as pKi for O=C1C=CC(CO)OC1O (stereo not shown) ?
Result :: 2.22
